Tested on: A2780cis (A2780/DDP) cells
Experiment: Cell proliferation evaluation on cisplatin-resistant A2780cis
Format: cell-based
Details: cisplatin-resistant cell line, 96 h; read-out: IC50 in A780cis cell line
pIC50: −log10 of the molar value.
measure-name: pIC50

molecule	numeric-result
N.N.[Cl][Pt][Cl] [Cisplatin, cisplatin]	5.22
